- tested.on: Pantothenate synthetase (Mycobacterium tuberculosis (strain ATCC 25618 / H37Rv)) (UniProt P9WIL5)
- Sequence (P9WIL5 whole entry, looked up): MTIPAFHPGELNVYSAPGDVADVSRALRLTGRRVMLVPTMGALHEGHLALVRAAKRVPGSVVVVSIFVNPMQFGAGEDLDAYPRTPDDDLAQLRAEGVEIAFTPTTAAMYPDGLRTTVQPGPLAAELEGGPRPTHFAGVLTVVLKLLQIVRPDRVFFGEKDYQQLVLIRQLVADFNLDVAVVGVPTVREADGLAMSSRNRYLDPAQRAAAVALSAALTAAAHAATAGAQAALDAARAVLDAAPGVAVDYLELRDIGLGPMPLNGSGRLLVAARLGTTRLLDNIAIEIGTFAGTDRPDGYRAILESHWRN
- test.details: Coupled enzyme confirmation of inhibitors against recombinant Mtb PanC (AID 375);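 also: 0% = full reaction with vehicle and 100% = no enzyme background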
- measurement.context: coupled enzyme assay; at 10 µM, active compounds read high
endpoint: inhibition (%)
# value in %; strip the unit string

q: Any idea what its inhibition is? The compound is O=C(CSc1nnc(-c2ccccc2)c(-c2ccccc2)n1)N1CCOCC1
a: 0

More entries:
q: Any idea what its inhibition is? The compound is CCOC(=O)c1cccc(NC(=O)CS(=O)(=O)Cc2nc(-c3cccc(OC)c3)oc2C)c1
a: 0

q: Any idea what its inhibition is? The compound is c1nc(NCC2(N3CCOCC3)CCCCC2)c2ccsc2n1
a: 0

====

- tested.on: Pantothenate synthetase (Mycobacterium tuberculosis (strain ATCC 25618 / H37Rv)) (UniProt P9WIL5)
- test.details: Coupled enzyme confirmation of inhibitors against recombinant Mtb PanC (AID 375);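 also: 0% = full reaction with vehicle and 100% = no enzyme background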
- measurement.context: coupled enzyme assay; at 10 µM, active compounds read high
Calls of active or inactive are those of the source. No rule for the calls is given here.
endpoint: inhibition

q: Any idea what its inhibition is? The compound is Cn1c(=O)cc(OCC(=O)NCCCN2CCN(Cc3ccccc3)CC2)c2ccccc21
a: 0% (inactive)

q: Any idea what its inhibition is? The compound is COc1cccc2cc(C(=O)N3CCN(C45CC6CC(CC(C6)C4)C5)CC3)c(=O)oc12
a: 1% (inactive)

q: Any idea what its inhibition is? The compound is Cc1cc(=O)n2nc(N3CCCC(C(=O)N4CCN(C)CC4)C3)sc2n1 (stereo unspecified)
a: 1% (inactive)

q: Any idea what its inhibition is? The compound is S=c1[nH]nc(-c2ccco2)n1-c1cccc2ccccc12
a: 0% (inactive)

q: Any idea what its inhibition is? The compound is COc1ccc(N2C(=O)CC(N3CCN(S(=O)(=O)c4c(F)cccc4F)CC3)C2=O)cc1OC (stereo unspecified)
a: 1% (inactive)

More entries:
q: Any idea what its inhibition is? The compound is CC1(C)CC(=O)C(C=NCCc2ccc(S(N)(=O)=O)cc2)=C(O)C1
a: 0% (inactive)

q: Any idea what its inhibition is? The compound is OC(CNCCc1ccccc1)c1ccccc1 (stereo unspecified)
a: 2% (inactive)

q: Any idea what its inhibition is? The compound is O=C(NC1(C(=O)NC2CCCCC2)CCCCC1)c1ccc2c(c1)OCO2
a: 3% (inactive)

q: Any idea what its inhibition is? The compound is CCCNC(=O)c1cc(-c2ccco2)on1
a: 2% (inactive)

q: Any idea what its inhibition is? The compound is COCCOC(=O)c1[nH]c2c(c1C)C(=O)CC(c1ccco1)C2 (stereo unspecified)
a: 3% (inactive)

q: Any idea what its inhibition is? The compound is Cc1nc2ccccc2c(=O)n1NC(=O)c1c(O)c2c(n(CC(C)C)c1=O)CCCC2
a: 0% (inactive)

====

- test.details: growth suppression of yeast trafficking mutant, preliminary HTS, modulators of trafficking downstream of Golgi apparatus project, 1536-format plate, OD 615 nm (AID 637)
- measurement.context: yeast transport mutant growth, absorbance 615 nm, 18 h
Calls of active or inactive are those of the source. No stated cut-off is given here; in the data, active means inhibition above about 30%; inactive means the rest.
Please state which outcome applies, choosing from T (active), F (inactive)

Examples from the recorded data:
q: Dear colleague, could you share the recorded outcome for CCOc1ccc(C2SCC(=O)Nc3c2c(=O)[nH]n3C2CCCCCC2)cc1 (stereo unspecified) when you have a moment?
a: F

q: Dear colleague, could you share the recorded outcome for CC(C)(C)OC(=O)c1c(N)n(Cc2ccco2)c2nc3ccccc3nc12 when you have a moment?
a: F

q: Dear colleague, could you share the recorded outcome for CC(C)(C)P(=O)(c1ccncc1)N1CCCC1 (stereo unspecified) when you have a moment?
a: F

q: Dear colleague, could you share the recorded outcome for NCCc1ccc(O)cc1 when you have a moment?
a: F

q: Dear colleague, could you share the recorded outcome for Cc1cc(C)c(C(=O)CN2CCOCC2)c(C)c1 when you have a moment?
a: F

q: Dear colleague, could you share the recorded outcome for CN(C)c1cc(N)c2c(n1)CCC2 (tested in a mixture with another compound) when you have a moment?
a: F

q: Dear colleague, could you share the recorded outcome for CNCC(O)c1ccc(O)cc1 (stereo unspecified) when you have a moment?
a: F

q: Dear colleague, could you share the recorded outcome for CCn1nc(-c2ccccc2)nc2c(=O)n(C)c(=O)nc1-2 when you have a moment?
a: T

More entries:
q: Dear colleague, could you share the recorded outcome for CCCCn1c(O)c(C(C)=NC(Cc2c[nH]c3ccccc23)C(=O)OC)c(=O)[nH]c1=O (stereo unspecified) when you have a moment?
a: F

q: Dear colleague, could you share the recorded outcome for CN1CCC(OC(=O)C2c3ccccc3Oc3ccccc32)CC1 when you have a moment?
a: F

q: Dear colleague, could you share the recorded outcome for CCOC(=O)C1CCCCC12C(C#N)=C(N)Oc1n[nH]c(C)c12 (stereo unspecified) when you have a moment?
a: F

q: Dear colleague, could you share the recorded outcome for COc1ccc(CC[n+]2cc(/N=C(\C)[O-])on2)cc1OC when you have a moment?
a: F

q: Dear colleague, could you share the recorded outcome for C[C@]12CCC(=O)C=C1CC[C@@H]1[C@@H]2CC[C@]2(C)C(=O)CC[C@@H]12 when you have a moment?
a: F

q: Dear colleague, could you share the recorded outcome for Cc1cccc(C2=NCC(=O)N(CC(=O)NCc3ccco3)c3sc4c(c32)CCCC4)c1 when you have a moment?
a: F
